biological target: SULT2B1b (Homo sapiens (Human)); test: LC-MS/MS based in vitro assay (DHEA-sulfate formation); type: biochemical; conditions: 100 μM compound, 2 hours; mean±s.e.m., n=3
Sequence (O00204 whole entry): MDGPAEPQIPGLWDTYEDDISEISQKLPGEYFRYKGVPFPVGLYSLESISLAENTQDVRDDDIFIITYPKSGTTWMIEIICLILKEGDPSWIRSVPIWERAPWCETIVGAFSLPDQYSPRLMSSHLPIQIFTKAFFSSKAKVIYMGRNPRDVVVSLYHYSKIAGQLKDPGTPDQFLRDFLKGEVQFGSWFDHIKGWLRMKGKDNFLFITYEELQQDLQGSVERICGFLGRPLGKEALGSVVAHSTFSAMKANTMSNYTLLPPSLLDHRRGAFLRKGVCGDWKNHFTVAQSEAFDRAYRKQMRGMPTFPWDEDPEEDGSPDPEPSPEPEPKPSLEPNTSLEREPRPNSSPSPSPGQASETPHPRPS
Here, each record is paired with measured inhibition at 100 µM data.
Assay Endpoint: inhibition at 100 µM (%)

In [3]: df
Out[3]:
                                   compound  reading_unit  reported
0  CN1C(=O)CC[C@@]2(C)C1=CC[C@@H]1[C@@H]2C(=O)C[C@]2(C)C(=O)CC[C@@H]12             %       8.8
1  C[C@]12CCC(=O)N(Cc3ccc(F)cc3)C1=CC[C@@H]1[C@@H]2C(=O)C[C@]2(C)C(=O)CC[C@@H]12             %        55
2  C[C@]12CCC(=O)N(Cc3ccccc3)C1=CC[C@@H]1[C@@H]2C(=O)C[C@]2(C)C(=O)CC[C@@H]12             %        48
3  C[C@]12CCC(=O)N(Cc3ccc(Cl)cc3)C1=CC[C@@H]1[C@@H]2CC[C@]2(C)C(=O)CC[C@@H]12             %        53
4  C[C@]12CCC(=O)N(Cc3ccc(Br)cc3)C1=CC[C@@H]1[C@@H]2C(=O)C[C@]2(C)C(=O)CC[C@@H]12             %      72.8
5  C[C@]12CC[C@H](O)CC1=CC[C@@H]1[C@@H]2CC[C@]2(C)C(n3cnc4ccccc43)=CC[C@@H]12 [Compound 2, Galeterone, reference compound]             %        57
